The values you see were collected from patent US10526343B2.

System: UDH-4 (environmental isolate, S. saprophyticus)
assay.procedure: MIC by broth microdilution
Assay type: cell-based
condition.info: Staphylococcus saprophyticus
Give measured MIC for each item. Keep answers brief.
One number for each entry, in µg/mL.

Some compounds with known MIC results, for comparison:
Report measured MIC; entry is COC(=O)CC1COc2c(cc3c4c2CCCN4CCC3)-c2c(NC(C)(C)C)n3c(-c4ccc(F)c(F)c4)csc3[n+]21 (centres unmarked) [Compound 1s] 6.25

Answer with the recorded MIC of COC(=O)CC1COc2c(cc3c4c2CCCN4CCC3)-c2c(NC(C)(C)C)n3c4ccc(Br)cc4sc3[n+]21 (centres unmarked) [Compound 1v] only. 25

Provide MIC value for the following compound: COC(=O)CC1COc2c(cc3c4c2CCCN4CCC3)-c2c(NC(C)(C)C)n3c(-c4cc(OC)ccc4OC)csc3[n+]21 (centres unmarked) [Compound 1t] 6.25

Complete the entry with MIC for COC(=O)CC1COc2c(cc3c4c2CCCN4CCC3)-c2c(N)n3c(-c4ccc(F)cc4)c(C)sc3[n+]21 (centres unmarked) [Compound 2b] 12.5

***
# return recorded MIC for entry COC(=O)CC1COc2c(cc3c4c2CCCN4CCC3)-c2c(NC(C)(C)C)n3c(-c4ccccc4)c(-c4ccccc4)sc3[n+]21 (centres unmarked) [Compound 2a] 6.25

---

System: UDH-7 (environmental isolate, S. haemolyticus)
assay.procedure: MIC by broth microdilution
Assay type: cell-based
condition.info: Staphylococcus haemolyticus; environmental isolate
Please provide measured log10 of MIC for the entries that follow.
Kindly note that the scale is log10 and the underlying MIC is in µg/mL.

Example molecules with recorded log10 of MIC:
Supply reported log10 of MIC belonging to this molecule: CCOC(=O)c1sc2n(c(NC(C)(C)C)c3[n+]2C(CC(=O)OC)COc2c-3cc3c4c2CCCN4CCC3)c1-c1ccccc1 (centres unmarked) 1.70

Look up and state reported log10 of MIC for COC(=O)CC1COc2c(cc3c4c2CCCN4CCC3)-c2c(NC(C)(C)C)n3c(-c4cc(OC)ccc4OC)csc3[n+]21 (centres unmarked) 1.10

Specify reported log10 of MIC for the molecule shown: COC(=O)CC1COc2c(cc3c4c2CCCN4CCC3)-c2c(NC(C)(C)C)n3c(-c4ccc(F)cc4)c(C)sc3[n+]21 (centres unmarked) 1.40

Hey, can you go through the list below and give me log10 of MIC for every item?
1. COC(=O)CC1COc2c(cc3c4c2CCCN4CCC3)-c2c(NC(C)(C)C)n3c(-c4ccc(Br)cc4)csc3[n+]21 (centres unmarked)
2. COC(=O)CC1COc2c(cc3c4c2CCCN4CCC3)-c2c(NC(C)(C)C)n3c(-c4ccc(F)c(F)c4)csc3[n+]21 (centres unmarked)
3. COC(=O)CC1COc2c(cc3c4c2CCCN4CCC3)-c2c(NC(C)(C)C)n3c(-c4ccc(NC(C)=O)cc4)csc3[n+]21 (centres unmarked)
4. COC(=O)CC1COc2c(cc3c4c2CCCN4CCC3)-c2c(N)n3c(-c4ccc(F)cc4)c(C)sc3[n+]21 (centres unmarked)

1. 1.10
2. 1.40
3. 1.70
4. 1.40

List log10 of MIC for every entry below, keeping the order given.
1. COC(=O)CC1COc2c(cc3c4c2CCCN4CCC3)-c2c(NC(C)(C)C)n3c(-c4ccc(Cl)cc4Cl)c(C)sc3[n+]21 (centres unmarked)
2. COC(=O)CC1COc2c(cc3c4c2CCCN4CCC3)-c2c(NC(C)(C)C)n3c(-c4cccc5c4OCO5)c(C)sc3[n+]21 (centres unmarked)
3. CCN(CC)c1ccc2c(c1)OCC(CC(=O)OC)[n+]1c-2c(NC(C)(C)C)n2c(-c3ccc(OC)cc3)c(-c3ccc(OC)cc3)sc21 (centres unmarked)
4. COC(=O)CC1COc2c(cc3c4c2CCCN4CCC3)-c2c(NC(C)(C)C)n3c(-c4ccc(Br)cc4)c(C)sc3[n+]21 (centres unmarked)
5. COC(=O)CC1COc2c(cc3c4c2CCCN4CCC3)-c2c(NC(C)(C)C)n3c4ccc(Br)cc4sc3[n+]21 (centres unmarked)

[1.10, 0.80, 1.10, 0.80, 1.70]

Please give log10 of MIC for each item listed below.
1. COC(=O)CC1COc2c(cc3c4c2CCCN4CCC3)-c2c(NC(C)(C)C)n3c(-c4ccc(OC)cc4)c(-c4ccc(OC)cc4)sc3[n+]21 (centres unmarked)
2. NCC[C@H](O)C(=O)N[C@@H]1C[C@H](N)[C@@H](O[C@H]2O[C@H](CN)[C@@H](O)[C@H](O)[C@H]2O)[C@H](O)[C@H]1O[C@H]1O[C@H](CO)[C@@H](O)[C@H](N)[C@H]1O [Amikacin, amikacin, reference compound]

1.10
0.60

---

Kindly supply the reported MIC values for the records listed here.
Tested on: UDH-4 (environmental isolate, S. saprophyticus)
assay.procedure: MIC by broth microdilution
Type: cell-based
condition.info: Staphylococcus saprophyticus
Give bare numbers, in µg/mL.

Worked set:
For the molecule COC(=O)CC1COc2c(cc3c4c2CCCN4CCC3)-c2c(NC(C)(C)C)n3c(-c4ccc(Cl)cc4Cl)c(C)sc3[n+]21 (stereo not drawn) , give its reported MIC. 3.12

Report measured MIC; entry is COC(=O)CC1COc2c(cc3c4c2CCCN4CCC3)-c2c(NC(C)(C)C)n3c(-c4ccc(OC)cc4)c(-c4ccc(OC)cc4)sc3[n+]21 (stereo not drawn) 3.12

Read the next record carefully.
Answer with reported MIC of COC(=O)CC1COc2c(cc3c4c2CCCN4CCC3)-c2c(NC(C)(C)C)n3c(-c4ccc(Br)cc4)c(C)sc3[n+]21 (stereo not drawn) 6.25

---

Test system: MRSA-3 (clinical isolate, methicillin-resistant Staphylococcus aureus)
assay.procedure: MIC by broth microdilution
Type: cell-based
quantity.measured: MIC (µg/mL)
Numbers only, in µg/mL.

Consider the worked cases shown below.
Print MRSA-3 (clinical isolate, methicillin-resistant Staphylococcus aureus) MIC for COC(=O)CC1COc2c(cc3c4c2CCCN4CCC3)-c2c(NC(C)(C)C)n3c(-c4cccc5c4OCO5)c(C)sc3[n+]21 (stereo not shown) . 3.12

Send back MRSA-3 (clinical isolate, methicillin-resistant Staphylococcus aureus) MIC of COC(=O)CC1COc2c(cc3c4c2CCCN4CCC3)-c2c(NC(C)(C)C)n3c(-c4ccc(NC(C)=O)cc4)csc3[n+]21 (stereo not shown) only. 12.5

Report its MIC with MRSA-3 (clinical isolate, methicillin-resistant Staphylococcus aureus) as the test system: COC(=O)CC1COc2c(cc3c4c2CCCN4CCC3)-c2c(NC(C)(C)C)n3c(-c4ccc(Cl)cc4Cl)c(C)sc3[n+]21 (stereo not shown) 6.25

Supply MIC measured with MRSA-3 (clinical isolate, methicillin-resistant Staphylococcus aureus) for COC(=O)CC1COc2c(cc3c4c2CCCN4CCC3)-c2c(N)n3c(-c4ccc(F)cc4)c(C)sc3[n+]21 (stereo not shown) . 12.5

Report its MIC with MRSA-3 (clinical isolate, methicillin-resistant Staphylococcus aureus) as the test system: COC(=O)CC1COc2c(cc3c4c2CCCN4CCC3)-c2c(NC(C)(C)C)n3c(-c4ccc(F)cc4)c(C)sc3[n+]21 (stereo not shown) 12.5

Below are 2 compounds. Give each one its MIC.
1. COC(=O)CC1COc2c(cc3c4c2CCCN4CCC3)-c2c(NC(C)(C)C)n3c(-c4cccc5c4OCCO5)csc3[n+]21 (stereo not shown)
2. COC(=O)CC1COc2c(cc3c4c2CCCN4CCC3)-c2c(NC(C)(C)C)n3c(-c4ccccc4)c(-c4ccccc4)sc3[n+]21 (stereo not shown)

[6.25, 3.12]

---

System: MRSA-3 (clinical isolate, methicillin-resistant Staphylococcus aureus)
assay.procedure: MIC by broth microdilution
Format: cell-based
For each of the molecules below, state its MIC.

Output MIC of COC(=O)CC1COc2c(cc3c4c2CCCN4CCC3)-c2c(NC(C)(C)C)n3c(-c4cc(OC)ccc4OC)csc3[n+]21 (stereo not drawn) [Compound 1t] 3.12 µg/mL

Please look at the items below and tell me MIC for each one, in order.
1. COC(=O)CC1COc2c(cc3c4c2CCCN4CCC3)-c2c(NC(C)(C)C)n3c(-c4ccc(F)c(F)c4)csc3[n+]21 (stereo not drawn) [Compound 1s]
2. COC(=O)CC1COc2c(cc3c4c2CCCN4CCC3)-c2c(NC(C)(C)C)n3c4ccc(Br)cc4sc3[n+]21 (stereo not drawn) [Compound 1v]

["6.25 µg/mL", "12.5 µg/mL"]

Dear colleague, could you please provide MIC for the molecules listed below?
1. CCN(CC)c1ccc2c(c1)OCC(CC(=O)OC)[n+]1c-2c(NC(C)(C)C)n2c(-c3ccc(OC)cc3)c(-c3ccc(OC)cc3)sc21 (stereo not drawn) [Compound 1h]
2. COC(=O)CC1COc2c(cc3c4c2CCCN4CCC3)-c2c(NC(C)(C)C)n3c(-c4ccc(Br)cc4)csc3[n+]21 (stereo not drawn) [Compound 1q]
3. COC(=O)CC1COc2c(cc3c4c2CCCN4CCC3)-c2c(NC(C)(C)C)n3c(-c4ccc(OC)cc4)c(-c4ccc(OC)cc4)sc3[n+]21 (stereo not drawn) [Compound 1z]

["3.12 µg/mL", "6.25 µg/mL", "6.25 µg/mL"]
